- EXPERIMENT SUMMARY: growth inhibition, single agents and combos, ICB984, cell-based, cisplatin or BGB combos, synergistic combos for chromothripsis tumors (AID 1671451);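 also: cells exposed for 96 hours before readout; 0% = vehicle DMSO and 100% = killing by high DMSO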
- COND: ICB984 medulloblastoma cells, drug combinations, at 0.5 µM, stronger effect = higher value
MEASURED PARAMETER: inhibition (%)
Provide the reading as a plain figure in %.

Query: Dear colleague, I am looking for the recorded inhibition of the following compound: Cc1ccc2nc(NCCN)c3ncc(C)n3c2c1
Response: -16

Query: Dear colleague, I am looking for the recorded inhibition of the following compound: O=C(O)CO.[NH2-].[NH2-].[Pt+2]
Response: -23.1

Query: Dear colleague, I am looking for the recorded inhibition of the following compound: CC(C)OC(=O)[C@H](C)N[P@](=O)(OC[C@H]1O[C@@H](n2ccc(=O)[nH]c2=O)[C@](C)(F)[C@@H]1O)Oc1ccccc1
Response: -6.96

Query: Dear colleague, I am looking for the recorded inhibition of the following compound: N=C1CCCN1Cc1[nH]c(=O)[nH]c(=O)c1Cl
Response: -1.56

Query: Dear colleague, I am looking for the recorded inhibition of the following compound: C=C1[C@H](CO)[C@@H](O)C[C@@H]1n1cnc2c(=O)[nH]c(N)nc21
Response: -11.2

Query: Dear colleague, I am looking for the recorded inhibition of the following compound: COc1ccc(-n2c(SCCCN3C(=O)c4cccc5cccc(c45)C3=O)nnc2-c2ccncc2)cc1
Response: -17.9

Query: Dear colleague, I am looking for the recorded inhibition of the following compound: COc1ccc(C(=O)CC2(O)C(=O)Nc3c(Cl)ccc(Cl)c32)cc1 (configuration not stated)
Response: -24.6

Query: Dear colleague, I am looking for the recorded inhibition of the following compound: Nc1nc2n[nH]nc2c(=O)[nH]1
Response: -25

Query: Dear colleague, I am looking for the recorded inhibition of the following compound: Nc1nc(OCc2cc(Br)cs2)c2[nH]cnc2n1
Response: -22.3

Query: Dear colleague, I am looking for the recorded inhibition of the following compound: O=c1[nH]c([C@@H]2CCCN2)nc2c1oc1ccc(Cl)cc12
Response: -16.4

Query: Dear colleague, I am looking for the recorded inhibition of the following compound: O=c1[nH]cnc2ccccc12
Response: -16.4

Query: Dear colleague, I am looking for the recorded inhibition of the following compound: COc1cc2ncnc(-n3nc(-c4ccccn4)nc3N)c2cc1OC
Response: -27.7
